Assign Western blot Human PBMC Ratio of DMSO/LRRK2 inhibitor A (mean ± SEM) to each entry below.
# STUDY_SYSTEM: T1, endogenous phosphorylated Rab10 in human PBMC (Homo sapiens, UniProt P61026)
# T1 construct: Strong endogenous phosphorylated Rab10 or phosphorylated Rab8a in human PBMC; host or cells: human PBMC
# T1 sequence (P61026 1-200): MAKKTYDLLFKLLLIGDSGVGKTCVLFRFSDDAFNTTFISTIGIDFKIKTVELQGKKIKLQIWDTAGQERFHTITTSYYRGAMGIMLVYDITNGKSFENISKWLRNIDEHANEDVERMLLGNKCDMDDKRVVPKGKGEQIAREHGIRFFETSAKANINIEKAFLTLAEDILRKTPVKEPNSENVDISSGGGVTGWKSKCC
# TEST: Western blot of human PBMC with anti-pT73-Rab10 antibodies
# Type: binding
# COND: band intensity normalized with Actin control for each of DMSO and LRRK2 inhibitor A; antibody 1 ug/ml
Numbers only.

{"MOLECULE": "Clone 81-11: anti-phosphorylated (pT73) Rab10 rabbit monoclonal antibody; VH SEQ ID NO:21, VL SEQ ID NO:25 (antibody, V domains shown) VH: METGLRWLLLVAVLKGVQCQSVEESGGRLVTPGTPLTLTCTVSGFSLSSYAMSWVRQAPGKGLEYIGLFNDVGIAYYANWAKGRFTFSKTSTTVDLKITSPTTEDTATYFCARVGGTTRVYGMDLWGPGTLVTVSS VL: MDTRAPTQLLGLLLLWLPGATFAAVLTQTPSPVSAAVGGTVSISCQSSKSVRHNNYLSWYQQKPGQRPKLLIYGASTLASGVPSRFSGSGSGTEFTLTISDVQCDDAATYYCAGGYSGGGDDAFGGGTEVVVE", "QUANTITATIVE_READOUT": 2.48}
{"MOLECULE": "Clone 19: anti-phosphorylated (pT73) Rab10 rabbit monoclonal antibody; VH SEQ ID NO:11, VL SEQ ID NO:13 (antibody, V domains shown) VH: METGLRWLLLVAVLKGVQCQSVEESGGRLVTPGTPLTLTCTVSGFSLSSYAMVWVRQAPGKGLEYIGLISRSGVTYYATWAKGRFTISKASTTVDLKIASPTTGDTATYFCVRDYDSAGWSGFTIWGPGTLVTVSA VL: MDTRAPTQLLGLLLLWLPGAICDPVMTQTPSSTSAAVGGTVTINCQSSQSVYGNNYLSWYQQKPGQPPKLLIYKASTLASGVPSRSVGSGSGTQFTLTISDLECDDAATYYCAGAASDTRFFGGGTELVVN", "QUANTITATIVE_READOUT": 3.39}

Let us move to another entry and its Western blot Human PBMC Ratio of DMSO/LRRK2 inhibitor A (mean ± SEM).
What the record says about Clone 19-4: anti-phosphorylated (pT73) Rab10 rabbit monoclonal antibody; VH SEQ ID NO:17, VL SEQ ID NO:18 (antibody, V domains shown) VH: METGLRWLLLVAVLKGVQCQSVEESGGRLVTPGTPLTLTCTVSGFSLSSYAMVWVRQAPGKGLEYIGLISRSGVTYYATWAKGRFTISKASTTVDLKIASPTTGDTATYFCVRDYDSAGWSGFTIWGPGTLVTVSA VL: MDTRAPTQLLGLLLLWLPGAICDPVMTQTPSSTSAAVGGTVTINCQSSQSVYGNNYLSWYQQKPGQPPKLLIYKASTLASGVPSRFVGSGSGTQFTLTISDLECDDAATYYCAGAASDTRFFGGGTELVVN : Western blot Human PBMC Ratio of DMSO/LRRK2 inhibitor A (mean ± SEM) is 2.95

Reference source for all entries: patent US11661461B2
